Sourced from patent US11136317B2

biological target: human NOX4 (Homo sapiens, UniProt Q9NPH5); construct: The full-length human NOX4 (NM_016931.3) transcript was cloned; experiment: Amplex Red activity assay (cellular H2O2 formation in hNOX4 T-REx-293 cells); conditions: tet-induced 24 h, extracellular H2O2 by Amplex Red, 60 min 25° C., geometric mean if determined several times
Sequence (Q9NPH5 whole entry): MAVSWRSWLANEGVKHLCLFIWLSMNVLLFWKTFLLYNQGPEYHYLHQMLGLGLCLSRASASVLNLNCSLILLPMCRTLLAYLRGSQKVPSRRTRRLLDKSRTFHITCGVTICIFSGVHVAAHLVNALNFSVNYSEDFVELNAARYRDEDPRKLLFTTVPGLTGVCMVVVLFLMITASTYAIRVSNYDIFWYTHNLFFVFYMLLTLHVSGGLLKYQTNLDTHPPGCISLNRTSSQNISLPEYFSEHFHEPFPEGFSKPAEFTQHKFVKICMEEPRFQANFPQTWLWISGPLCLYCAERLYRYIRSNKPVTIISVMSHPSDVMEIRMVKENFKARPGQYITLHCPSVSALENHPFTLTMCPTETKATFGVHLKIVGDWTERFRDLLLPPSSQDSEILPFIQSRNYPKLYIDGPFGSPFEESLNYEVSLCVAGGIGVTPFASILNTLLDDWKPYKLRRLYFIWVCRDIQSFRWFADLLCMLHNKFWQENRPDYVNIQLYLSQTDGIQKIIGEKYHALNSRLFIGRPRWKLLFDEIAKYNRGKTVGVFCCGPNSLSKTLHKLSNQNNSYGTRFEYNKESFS
Sequence (P13498 whole entry partner): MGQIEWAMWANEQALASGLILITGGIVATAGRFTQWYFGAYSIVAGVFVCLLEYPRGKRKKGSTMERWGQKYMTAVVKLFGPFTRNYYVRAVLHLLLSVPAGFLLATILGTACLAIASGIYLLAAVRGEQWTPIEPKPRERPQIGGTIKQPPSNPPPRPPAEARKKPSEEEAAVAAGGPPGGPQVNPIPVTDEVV
Would you mind telling me the reported log10 IC50 of each entry?
Hey, these are logged values: log10 of IC50, µM being the unit before logging.

Some compounds with recorded log10 IC50:
[[record]]
compound = "O=C(Nc1ccc2oc(N3CC4(CCCO4)C3)nc2c1)c1ccc2c(c1)CCO2"
assayvalue = 0.34

[[record]]
compound = "O=C(Nc1ccc2oc(N3CCCC34COC4)nc2c1)c1ccc2c(c1)OCO2"
assayvalue = 0.24

[[record]]
compound = "O=C(Nc1ccc2oc(N3CCC34CCOC4)nc2c1)c1ccc2c(c1)OCO2 (stereo not shown)"
assayvalue = -0.11

[[record]]
compound = "COC1CCN(c2nc3cc(NC(=O)c4ccc5c(c4)OCO5)ccc3o2)CC1"
assayvalue = 0.02

[[record]]
compound = "CN1CCN(c2nc3cc(NC(=O)c4ccc5c(c4)OCCO5)ccc3o2)CC1"
assayvalue = 0.14


The following compounds each have a reported value; give each one's log10 IC50.
1. COC1CCN(c2nc3cc(NC(=O)c4ccc5c(c4)CCCO5)ccc3o2)CC1
2. O=C(Nc1ccc2c(c1)CCO2)c1ccc2oc(N3CCOCC3)nc2c1
3. O=C(Nc1ccc2oc(N3CCCCC3)nc2c1)c1ccc2c(c1)OCCO2
4. O=C(Nc1ccc2sc(N3CC4(COC4)C3)nc2c1)c1ccc2c(c1)CCO2
5. O=C(Nc1ccc2c(c1)OCCO2)c1ccc2sc(N3CCC34COC4)nc2c1
6. CN1CCN(c2nc3cc(C(=O)Nc4ccc5c(c4)CCO5)ccc3s2)CC1
7. O=C(Nc1ccc2oc(N3CCC4(CC3)COC4)nc2c1)c1ccc2c(c1)CCCO2
8. CN1CCOc2ccc(C(=O)Nc3ccc4oc(N(C5CC5)C5COC5)nc4c3)cc21

Result:
1: 0.13; 2: -0.26; 3: 0.18; 4: 0.64; 5: 0.26; 6: 0.46; 7: 0.11; 8: 0.65

The following compounds each have a reported value; give each one's log10 IC50.
1. COC1CCN(c2nc3cc(NC(=O)c4ccc5c(c4)CCO5)ccc3o2)C1 (stereo not shown)
2. O=C(Nc1ccc2oc(N3CCCC4(COC4)C3)nc2c1)c1ccc2c(c1)CCO2
3. CN(c1nc2cc(NC(=O)c3ccc4c(c3)CCO4)ccc2s1)C1CCN(C2COC2)CC1

Result:
1: -0.15; 2: -0.40; 3: 0.53
